target: Serine/threonine-protein kinase PLK1 (Homo sapiens) (UniProt P53350); assay: qHTS for Inhibitors of PLK1-PDB (polo-like kinase 1 - polo-box domain): Primary Screen; details: Plk1 PBD binding of FITC phosphopeptide, fluorescence polarization; further: series mostly up to about 57 µM; on the % scale 0 is the no-effect control and ±100 the full control effect; nearly all actives have a fitted effect of over 65% in size
Sequence (P53350 whole entry, looked up, the tested form may be a part): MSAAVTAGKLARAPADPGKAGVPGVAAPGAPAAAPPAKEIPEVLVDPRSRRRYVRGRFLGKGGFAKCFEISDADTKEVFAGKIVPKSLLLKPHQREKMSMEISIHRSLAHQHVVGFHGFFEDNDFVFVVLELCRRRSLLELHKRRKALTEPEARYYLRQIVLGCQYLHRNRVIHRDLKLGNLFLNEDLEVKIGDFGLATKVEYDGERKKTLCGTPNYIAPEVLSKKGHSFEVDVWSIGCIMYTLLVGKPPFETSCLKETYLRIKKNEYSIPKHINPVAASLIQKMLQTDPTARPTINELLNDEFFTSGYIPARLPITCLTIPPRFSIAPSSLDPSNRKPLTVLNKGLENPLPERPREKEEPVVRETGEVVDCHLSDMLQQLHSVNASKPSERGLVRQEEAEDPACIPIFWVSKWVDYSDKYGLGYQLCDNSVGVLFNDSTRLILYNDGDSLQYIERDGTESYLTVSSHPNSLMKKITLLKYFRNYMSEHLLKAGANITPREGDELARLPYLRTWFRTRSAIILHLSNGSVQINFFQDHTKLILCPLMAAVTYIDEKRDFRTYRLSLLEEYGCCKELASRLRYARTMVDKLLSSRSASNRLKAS
Hit rate of the full screen: of about 360,000 compounds, about 10,000 (2.8%) were called active. Roughly 4% stayed inconclusive and do not appear here. Many of the other results were omitted from the sample, so actives are more common in it than they were.
# max response, negative = inhibition per entry
Give the value, in units of %, as a plain number.

compound	unit_abbreviation	observed_result
CC(CC(C#N)(c1ccccc1)c1ccccc1)N1CCCCC1 (stereo not given)	%	-6.42
CCOC(=O)CNC(=O)N1Cc2cc(N3CCCCC3)ccc2-n2nncc2C1	%	-3.84

Which max response, negative = inhibition value is on record for `COc1ccc(NC(=O)N2Cc3ccccc3-n3nncc3C2)cc1` ?
-7.51

Which max response, negative = inhibition value is on record for CC(=NCC1CCCO1)c1c(O)n(-c2ccccc2)c(=O)[nH]c1=O (stereo not given) ?
-9.8
